Target System: T1, Human full-length (FL) NPR-C (27–541)-10His-Flag (human, UniProt P17342-2 27-540)
T1 construct: natriuretic peptide receptor C (NPR-C), human, residues 27-541; Primarily a disulphide-bonded dimer (~130 kDa) on non-reducing SDS-PAGE; The tag's end is read from the construct's name (27–541)-10His-Flag; also called natriuretic peptide receptor C; natriuretic peptide receptor type-C; source: expressed and isolated at Peak Proteins, UK; not shown: 10His, C-terminal, kept; Flag, C-terminal, kept
T1 sequence (looked up): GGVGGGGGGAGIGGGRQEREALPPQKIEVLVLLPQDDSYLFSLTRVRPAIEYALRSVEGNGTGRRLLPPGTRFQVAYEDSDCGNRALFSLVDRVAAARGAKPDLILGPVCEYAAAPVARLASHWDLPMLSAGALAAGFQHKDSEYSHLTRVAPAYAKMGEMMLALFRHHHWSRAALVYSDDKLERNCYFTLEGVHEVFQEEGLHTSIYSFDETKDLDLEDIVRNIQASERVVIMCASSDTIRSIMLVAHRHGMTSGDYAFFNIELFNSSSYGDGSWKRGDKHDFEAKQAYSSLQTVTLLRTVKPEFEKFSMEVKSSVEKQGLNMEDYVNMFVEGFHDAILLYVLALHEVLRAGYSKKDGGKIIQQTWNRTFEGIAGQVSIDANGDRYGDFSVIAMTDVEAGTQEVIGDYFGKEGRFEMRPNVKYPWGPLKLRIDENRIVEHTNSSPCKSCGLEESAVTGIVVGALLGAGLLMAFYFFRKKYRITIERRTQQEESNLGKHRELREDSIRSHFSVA
Assay Notes: fluorescence polarisation; competition against 15 nM Flu-P19 probe; FL NPR-C 150 nM or ECD NPR-C 400 nM; competitor 4.89 nM-2.5 uM; HEPES buffer, 3% DMSO; Ki computed from IC50 with a web-based converter
Setup Conditions: both partners purified
pKi: −log10 of the molar value. Bridge positions count the residues as written; N and C are the ends. Ends that are not written are not given here.

- Binder: "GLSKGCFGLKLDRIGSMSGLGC (ligand, disulfide 6-22 (inferred)) [C-type natriuretic peptide]"
  pKi: 9.31
